Entry source: PubChem BioAssay AID652011

MEASURED_TARGET: Endothelial PAS domain-containing protein 1 (Homo sapiens) (UniProt Q99814)
Sequence (Q99814 whole entry, looked up, the tested form may be a part): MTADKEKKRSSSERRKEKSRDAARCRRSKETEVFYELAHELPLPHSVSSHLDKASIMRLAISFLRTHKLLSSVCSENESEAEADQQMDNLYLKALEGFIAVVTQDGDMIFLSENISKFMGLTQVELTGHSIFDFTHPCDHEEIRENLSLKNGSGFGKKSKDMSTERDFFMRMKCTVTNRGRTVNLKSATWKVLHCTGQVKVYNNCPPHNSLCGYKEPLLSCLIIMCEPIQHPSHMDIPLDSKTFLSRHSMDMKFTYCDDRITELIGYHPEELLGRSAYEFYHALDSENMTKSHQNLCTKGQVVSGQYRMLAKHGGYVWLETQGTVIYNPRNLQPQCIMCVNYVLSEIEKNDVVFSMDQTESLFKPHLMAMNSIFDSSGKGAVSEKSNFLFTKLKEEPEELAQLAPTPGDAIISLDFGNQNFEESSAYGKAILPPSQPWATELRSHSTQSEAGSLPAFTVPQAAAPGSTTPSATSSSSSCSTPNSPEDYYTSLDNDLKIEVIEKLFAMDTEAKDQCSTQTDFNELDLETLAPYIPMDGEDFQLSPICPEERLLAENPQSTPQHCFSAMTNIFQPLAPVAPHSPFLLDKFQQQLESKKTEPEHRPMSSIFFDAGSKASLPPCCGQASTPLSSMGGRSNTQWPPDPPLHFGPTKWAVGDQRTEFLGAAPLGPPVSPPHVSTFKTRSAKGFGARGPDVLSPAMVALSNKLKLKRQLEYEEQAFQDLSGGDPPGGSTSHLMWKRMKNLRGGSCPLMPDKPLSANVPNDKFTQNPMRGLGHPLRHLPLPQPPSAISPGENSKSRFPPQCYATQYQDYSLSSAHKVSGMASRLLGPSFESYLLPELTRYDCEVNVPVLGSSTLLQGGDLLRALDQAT
PROCEDURE_SUMMARY: HIF-1a and HIF-2a reporter inhibitors, SAR follow-up, cell-based, luminescence, MIAPaCa-2, 786-0, panel (AID 652011)
CONDITION_SET: MIAPaCa-2/PANC HIF reporter, luciferase luminescence, desferoxamine, overnight, HIF2a PANC, run 1; at 99 µM (top of the series)
RECORDED_ENDPOINT: inhibition (%)
Give the value in % but do not write % after it.

Below: 5 compounds and their reported inhibition.
{"COMPOUND": "CCCNC(=O)CCc1nc(-c2ccc(C(C)(C)C)cc2)no1", "MEASURED_TARGET": "Endothelial PAS domain-containing protein 1 (Homo sapiens) (UniProt Q99814)", "inhibition, %": 7.88}
{"COMPOUND": "CCCCc1ccc(-c2noc(CCC(=O)NC3CC3)n2)cc1", "MEASURED_TARGET": "Endothelial PAS domain-containing protein 1 (Homo sapiens) (UniProt Q99814)", "inhibition, %": -40.8}
{"COMPOUND": "CCOc1ccc(-c2noc(CCC(=O)NC)n2)cc1", "MEASURED_TARGET": "Endothelial PAS domain-containing protein 1 (Homo sapiens) (UniProt Q99814)", "inhibition, %": 112}
{"COMPOUND": "CCCCc1ccc(-c2noc(CCC(=O)NCC)n2)cc1", "MEASURED_TARGET": "Endothelial PAS domain-containing protein 1 (Homo sapiens) (UniProt Q99814)", "inhibition, %": -29.8}
{"COMPOUND": "COc1ccccc1NC(=O)CCc1nc(-c2ccc(C(C)(C)C)cc2)no1", "MEASURED_TARGET": "Endothelial PAS domain-containing protein 1 (Homo sapiens) (UniProt Q99814)", "inhibition, %": 115}

Here is another compound to look at.
// sample CCc1ccc(-c2noc(CCC(=O)NC(C)(C)C)n2)cc1 , its inhibition was -42.9
